Test: self-splicing fitness, log relative to wild type (ln ratio); higher = more splicing; Tetrahymena group I intron in knt gene, E. coli kanamycin selection, DiMSum; sequences stand for … in CUCUCU…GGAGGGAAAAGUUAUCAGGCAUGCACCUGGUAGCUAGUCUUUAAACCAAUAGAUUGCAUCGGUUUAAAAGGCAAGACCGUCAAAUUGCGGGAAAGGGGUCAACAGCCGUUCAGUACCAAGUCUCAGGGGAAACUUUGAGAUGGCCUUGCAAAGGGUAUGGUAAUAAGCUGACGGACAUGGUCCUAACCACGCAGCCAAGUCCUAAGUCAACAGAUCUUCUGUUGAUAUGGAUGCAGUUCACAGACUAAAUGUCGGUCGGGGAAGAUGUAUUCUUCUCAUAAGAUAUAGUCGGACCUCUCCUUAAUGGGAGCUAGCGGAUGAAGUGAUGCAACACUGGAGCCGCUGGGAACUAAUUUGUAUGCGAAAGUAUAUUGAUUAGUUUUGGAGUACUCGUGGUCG;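 also: selection with 25 µg/mL kanamycin versus none on LB agar overnight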
Conditions: 37 °C
Use -1 as the dividing line for self-splicing fitness (ln), with the line itself on the Yes side and lower values as No.

>  <input_sequence>
CGUCAGCAAUAUUACGACCU

>  <group>
Yes

$$$$
>  <input_sequence>
CUGUAGCAAUAUUACGUAUA

>  <group>
No

$$$$
>  <input_sequence>
GAGGAGCAAUAUUACGAACG

>  <group>
No

$$$$
>  <input_sequence>
AGGAAGCAAUAUUACGUUUC

>  <group>
No

$$$$
>  <input_sequence>
GAUCAGCAAUAUUACGUGGG

>  <group>
No

$$$$
>  <input_sequence>
GUACAGCAAUAUUACGGUAU

>  <group>
No

$$$$
>  <input_sequence>
CUAUAGCAAUAUUACGGGGA

>  <group>
No

$$$$
>  <input_sequence>
CGCAAGCAAUAUUACGCAUA

>  <group>
Yes

$$$$
>  <input_sequence>
UACUAGCAAUAUUACGUUAU

>  <group>
No

$$$$
>  <input_sequence>
UAUAAGCAAUAUUACGGAUA

>  <group>
Yes

$$$$
>  <input_sequence>
GGAUAGCAAUAUUACGCAUA

>  <group>
No

$$$$
>  <input_sequence>
ACAAAGCAAUAUUACGGCAC

>  <group>
Yes

$$$$
>  <input_sequence>
AUUAAGCAAUAUUACGACGC

>  <group>
Yes

$$$$
>  <input_sequence>
UGCGAGCAAUAUUACGUAUA

>  <group>
Yes

$$$$
>  <input_sequence>
GGUGAGCAAUAUUACGCCGA

>  <group>
No

$$$$
>  <input_sequence>
ACUUAGCAAUAUUACGAAGA

>  <group>
No

$$$$
>  <input_sequence>
CCCAAGCAAUAUUACGUUAG

>  <group>
No

$$$$
>  <input_sequence>
UCAAAGCAAUAUUACGGAAA

>  <group>
No

$$$$
>  <input_sequence>
AGUGAGCAAUAUUACGUUAG

>  <group>
No

$$$$
>  <input_sequence>
AAUUAGCAAUAUUACGAGAA

>  <group>
No

$$$$
>  <input_sequence>
AGAUAGCAAUAUUACGACUG

>  <group>
Yes

$$$$
>  <input_sequence>
UAACAGCAAUAUUACGACAA

>  <group>
Yes

$$$$
>  <input_sequence>
AGUUAGCAAUAUUACGGCUU

>  <group>
No

$$$$
>  <input_sequence>
GCAAAGCAAUAUUACGAUCC

>  <group>
Yes

$$$$
>  <input_sequence>
CUCAAGCAAUAUUACGUAAU

>  <group>
No

$$$$
>  <input_sequence>
AAAAAGCAAUAUUACGGCAC

>  <group>
Yes

$$$$
>  <input_sequence>
ACGCAGCAAUAUUACGCCAG

>  <group>
No

$$$$
>  <input_sequence>
AGCGAGCAAUAUUACGUCGG

>  <group>
No

$$$$
>  <input_sequence>
GAGAAGCAAUAUUACGAGAG

>  <group>
No

$$$$
>  <input_sequence>
UUGCAGCAAUAUUACGAACA

>  <group>
No

$$$$
>  <input_sequence>
AAGCAGCAAUAUUACGUACC

>  <group>
Yes

$$$$
>  <input_sequence>
GUAUAGCAAUAUUACGACUA

>  <group>
Yes

$$$$
>  <input_sequence>
GUUGAGCAAUAUUACGGCUA

>  <group>
Yes

$$$$
>  <input_sequence>
UAGCAGCAAUAUUACGUAGG

>  <group>
No

$$$$
